- Species: Rattus norvegicus
- assay: Open TG-GATES - Regimen: Daily Repeat
- Format: toxicity, organism-based, Sprague-Dawley
- Parameters: regimen Daily Repeat, gender Male, age 6 weeks
- test.conditions: in vivo, po, 0 mg/kg, 72 h, tissue Kidney, route gavage, dose level Control, time 3 day
As shown below, each of these compounds has a reported KIDNEY_R value.
measurement.type: KIDNEY_R (g)

compound=Clc1ccccc1CN1CCc2sccc2C1 unit_of_measurement=g experimental_value=1
compound=Cn1c(=O)c2[nH]cnc2n(C)c1=O.O unit_of_measurement=g experimental_value=1.1
compound=NC(=O)N/N=C/c1ccc([N+](=O)[O-])o1 unit_of_measurement=g experimental_value=0.9
compound=CC(=O)Oc1ccccc1C(=O)O unit_of_measurement=g experimental_value=1.1
compound="CCc1cc(C(N)=S)ccn1 [ETHIONAMIDE]" unit_of_measurement=g experimental_value=1.2
compound=O=C(O)c1cc(/N=N/c2ccc(S(=O)(=O)Nc3ccccn3)cc2)ccc1O unit_of_measurement=g experimental_value=1
compound=COc1ccc2c(c1)c(CC(=O)O)c(C)n2C(=O)c1ccc(Cl)cc1 unit_of_measurement=g experimental_value=1.1
compound=C[C@H](CS)C(=O)N1CCC[C@H]1C(=O)O unit_of_measurement=g experimental_value=1.1
compound="CSc1ccc2c(c1)N(CCC1CCCCN1C)c1ccccc1S2 (stereo not given)" unit_of_measurement=g experimental_value=1.1
compound=COc1ccc(Cc2nccc3cc(OC)c(OC)cc23)cc1OC unit_of_measurement=g experimental_value=1

----------
- Organism: Rattus norvegicus
- assay: Open TG-GATES - Regimen: Single
- Format: toxicity, organism-based, Sprague-Dawley
- Parameters: regimen Single, gender Male, age 6 weeks
- test.conditions: in vivo, po, 1000 mg/kg, 24 h, tissue Plasma, route gavage, dose level High
measurement.type: GLC (mg/dL)

compound=C[C@H](CS)C(=O)N1CCC[C@H]1C(=O)O experimental_value=200.4
compound=Clc1ccccc1CN1CCc2sccc2C1 experimental_value=196.4
compound="CCc1cc(C(N)=S)ccn1 [ETHIONAMIDE]" experimental_value=228.8
compound=O=C(O)c1cc(/N=N/c2ccc(S(=O)(=O)Nc3ccccn3)cc2)ccc1O experimental_value=191
compound=O=C(O)c1cn(C2CC2)c2cc(N3CCNCC3)c(F)cc2c1=O experimental_value=183.8

----------
- Species: Rattus norvegicus
- assay: Open TG-GATES - Regimen: Daily Repeat
- Type: toxicity, organism-based, Sprague-Dawley
- Set-up: regimen Daily Repeat, gender Male, age 6 weeks
- test.conditions: in vivo, po, 0 mg/kg, […], tissue Blood, route gavage, dose level Control, time 14 day
# Lookup of reported WBC keyed by entry
measurement.type: WBC (x10_2/uL)

molecule="CO[C@H]1/C=C/O[C@@]2(C)Oc3c(C)c(O)c4c(O)c(c(/C=N/N5CCN(C)CC5)c(O)c4c3C2=O)NC(=O)/C(C)=C\\C=C\\[C@H](C)[C@H](O)[C@@H](C)[C@@H](O)[C@@H](C)[C@H](OC(C)=O)[C@@H]1C [RIFAMPIN]" measurement_type=WBC experimental_value=153.6
molecule="COc1ccc2c(c1)c(CC(=O)O)c(C)n2C(=O)c1ccc(Cl)cc1 [INDOMETHACIN]" measurement_type=WBC experimental_value=148.4
molecule="O=C(O)c1cn(C2CC2)c2cc(N3CCNCC3)c(F)cc2c1=O [CIPROFLOXACIN]" measurement_type=WBC experimental_value=131.2
molecule="CN(C)CCC=C1c2ccccc2CCc2ccccc21 [AMITRIPTYLINE]" measurement_type=WBC experimental_value=94.5
molecule="NC(=O)N/N=C/c1ccc([N+](=O)[O-])o1 [NITROFURAZONE]" measurement_type=WBC experimental_value=91.3
molecule="CCc1cc(C(N)=S)ccn1 [ETHIONAMIDE]" measurement_type=WBC experimental_value=122.9
molecule="C[C@H](CS)C(=O)N1CCC[C@H]1C(=O)O [CAPTOPRIL]" measurement_type=WBC experimental_value=122.3
molecule="COc1ccc(Cc2nccc3cc(OC)c(OC)cc23)cc1OC [PAPAVERINE]" measurement_type=WBC experimental_value=120
molecule="CC(=O)Oc1ccccc1C(=O)O [ASPIRIN]" measurement_type=WBC experimental_value=134.5
molecule="CCCC(CCC)C(=O)O [VALPROIC ACID]" measurement_type=WBC experimental_value=114.6
molecule="CSc1ccc2c(c1)N(CCC1CCCCN1C)c1ccccc1S2 (stereo not given) [THIORIDAZINE]" measurement_type=WBC experimental_value=129.7
molecule="Cn1c(=O)c2[nH]cnc2n(C)c1=O.O [THEOPHYLLINE]" measurement_type=WBC experimental_value=138.2
molecule="NC(=O)N1c2ccccc2C=Cc2ccccc21 [CARBAMAZEPINE]" measurement_type=WBC experimental_value=120.8
molecule="O=C(O)c1cc(/N=N/c2ccc(S(=O)(=O)Nc3ccccn3)cc2)ccc1O [SULFASALAZINE]" measurement_type=WBC experimental_value=92.7
molecule="Clc1ccccc1CN1CCc2sccc2C1 [TICLOPIDINE]" measurement_type=WBC experimental_value=121.8

----------
- Organism: Rattus norvegicus
- assay: Open TG-GATES - Regimen: Single
- Type: toxicity, organism-based, Sprague-Dawley
- Set-up: regimen Single, gender Male, age 6 weeks
- test.conditions: in vivo, po, 1000 mg/kg, 6 h, tissue Plasma, route gavage, dose level High
Entries and their measured K follow.
measurement.type: K (meq/L)

compound="CCc1cc(C(N)=S)ccn1 [ETHIONAMIDE]" experimental_value=4
compound="O=C(O)c1cn(C2CC2)c2cc(N3CCNCC3)c(F)cc2c1=O [CIPROFLOXACIN]" experimental_value=5.3
compound="O=C(O)c1cc(/N=N/c2ccc(S(=O)(=O)Nc3ccccn3)cc2)ccc1O [SULFASALAZINE]" experimental_value=4
compound="Clc1ccccc1CN1CCc2sccc2C1 [TICLOPIDINE]" experimental_value=3.8
compound="C[C@H](CS)C(=O)N1CCC[C@H]1C(=O)O [CAPTOPRIL]" experimental_value=4.7

----------
- Organism: Rattus norvegicus
- assay: Open TG-GATES - Regimen: Single
- Assay type: toxicity, organism-based, Sprague-Dawley
- Set-up: regimen Single, gender Male, age 6 weeks
- test.conditions: in vivo, po, 300 mg/kg, 24 h, tissue Kidney, route gavage, dose level Middle
Recorded KIDNEY_L values for a group of molecules are listed next.
measurement.type: KIDNEY_L (g)

molecule=O=C(O)c1cn(C2CC2)c2cc(N3CCNCC3)c(F)cc2c1=O unit_of_measurement=g experimental_value=0.9
molecule="CCc1cc(C(N)=S)ccn1 [ETHIONAMIDE]" unit_of_measurement=g experimental_value=1.1
molecule=C[C@H](CS)C(=O)N1CCC[C@H]1C(=O)O unit_of_measurement=g experimental_value=1
molecule=O=C(O)c1cc(/N=N/c2ccc(S(=O)(=O)Nc3ccccn3)cc2)ccc1O unit_of_measurement=g experimental_value=1
molecule=Clc1ccccc1CN1CCc2sccc2C1 unit_of_measurement=g experimental_value=1

----------
- Species on record: Rattus norvegicus
- assay: Open TG-GATES - Regimen: Single
- Type: toxicity, organism-based, Sprague-Dawley
- Parameters: regimen Single, gender Male, age 6 weeks
- test.conditions: in vivo, po, 1000 mg/kg, 9 h, tissue Blood, route gavage, dose level High
measurement.type: MCH

compound=Clc1ccccc1CN1CCc2sccc2C1 experimental_value="21.5 pg"
compound=O=C(O)c1cc(/N=N/c2ccc(S(=O)(=O)Nc3ccccn3)cc2)ccc1O experimental_value="21.9 pg"
compound="CCc1cc(C(N)=S)ccn1 [ETHIONAMIDE]" experimental_value="21.2 pg"
compound=C[C@H](CS)C(=O)N1CCC[C@H]1C(=O)O experimental_value="20.8 pg"
compound=O=C(O)c1cn(C2CC2)c2cc(N3CCNCC3)c(F)cc2c1=O experimental_value="22 pg"

----------
- Species: Rattus norvegicus
- assay: Open TG-GATES - Regimen: Single
- Assay type: toxicity, organism-based, Sprague-Dawley
- Design: regimen Single, gender Male, age 6 weeks
- test.conditions: in vivo, po, 100 mg/kg, 3 h, tissue Plasma, route gavage, dose level Low
Catalogue of K readings, one per entry.
measurement.type: K (meq/L)

compound=C[C@H](CS)C(=O)N1CCC[C@H]1C(=O)O unit_of_measurement=meq/L experimental_value=4.9
compound="CCc1cc(C(N)=S)ccn1 [ETHIONAMIDE]" unit_of_measurement=meq/L experimental_value=4.4
compound=O=C(O)c1cc(/N=N/c2ccc(S(=O)(=O)Nc3ccccn3)cc2)ccc1O unit_of_measurement=meq/L experimental_value=3.7
compound=Clc1ccccc1CN1CCc2sccc2C1 unit_of_measurement=meq/L experimental_value=3.9
compound=O=C(O)c1cn(C2CC2)c2cc(N3CCNCC3)c(F)cc2c1=O unit_of_measurement=meq/L experimental_value=4.9
